Test: AUC in dog at 5 mg/kg, po
Type: ADME, organism-based, Canis lupus familiaris
Parameters: dose 5 mg/kg, route oral
Details: plasma
attributeMeasured: AUC (µM·h)
The answer is to be given in µM·h; state only the numeric part.

query: Record request: AUC value, item COc1ccc2c(c1)C(=O)N(C[C@@]1(C#Cc3cccnc3)NC(=O)NC1=O)C2
result: 1.1

----------
Test system: Blood
Test: Antiinflammatory activity in human whole blood assessed as inhibition of LPS-induced TNFalpha production after 3.5 hrs by ELISA
Type: functional
Definition: the class of an entry is the range in low (below 200 nM), intermediate (200 nM to below 600 nM), high (600 nM or more) that contains its Activity.

query: Which class is correct for the following molecule? CCN1CCN(/C(=N\O)c2ccc(C#C[C@]3(CN4Cc5ccc(OC)cc5C4=O)NC(=O)NC3=O)cc2)CC1
result: low

query: Consider COc1ccc2c(c1)C(=O)N(C[C@@]1(C#Cc3cccc(C#N)c3)NC(=O)NC1=O)C2 . To which Activity class does it belong?
result: intermediate

query: Any idea which band COc1ccc2c(c1)C(=O)N(C[C@@]1(C#Cc3ccc(/C=N/O)cc3)NC(=O)NC1=O)C2 is in?
result: low

query: Would you mind sorting COc1ccc2c(c1)C(=O)N(C[C@@]1(C#Cc3ccc(F)cc3)NC(=O)NC1=O)C2 into the appropriate category?
result: high

query: Band assignment needed for COc1ccc2c(c1)C(=O)N(C[C@@]1(C#Cc3ccc4cnn(C)c4c3)NC(=O)NC1=O)C2 please.
result: high

query: Class label required: CCN1CCN(/C(=N\O)c2ccc(C#C[C@]3(CN4Cc5ccc(OC)cc5C4=O)NC(=O)NC3=O)cn2)CC1
result: low

query: Form: Item = COc1ccc2c(c1)C(=O)N(C[C@@]1(C#Cc3ccc4[nH]c(=O)[nH]c4c3)NC(=O)NC1=O)C2 ; Class = ?
result: intermediate

query: Class (by measured Activity) for COc1ccc2c(c1)C(=O)N(C[C@@]1(C#Cc3cnc4[nH]cnc4c3)NC(=O)NC1=O)C2
result: low

query: Sort into band: COc1ccc2c(c1)C(=O)N(C[C@@]1(C#Cc3ccccc3C)NC(=O)NC1=O)C2
result: high

query: Form field 'band' for COc1ccc2c(c1)C(=O)N(C[C@@]1(C#Cc3cccc(C)c3)NC(=O)NC1=O)C2
result: high

query: Please indicate the class for COc1ccc2c(c1)C(=O)N(C[C@@]1(C#Cc3ccc4cc[nH]c4c3)NC(=O)NC1=O)C2 based on its Activity.
result: high

query: In plain terms, what class is COc1ccc2c(c1)C(=O)N(C[C@@]1(C#Cc3ccc4[nH]cnc4c3)NC(=O)NC1=O)C2 ?
result: intermediate

query: # bin lookup: classify COc1ccc2c(c1)C(=O)N(C[C@@]1(C#Cc3ccccc3C(N)=O)NC(=O)NC1=O)C2 by its Activity
result: high

query: Category lookup for the molecule COc1ccc2c(c1)C(=O)N(C[C@@]1(C#Cc3ccc(C(=O)NC4CC4)cc3)NC(=O)NC1=O)C2
result: intermediate

query: In plain terms, what class is COc1ccc2c(c1)C(=O)N(C[C@@]1(C#Cc3ccc([C@H](C)N)cc3)NC(=O)NC1=O)C2 ?
result: high

query: Which band does CCN1CCN(Cc2ccc(C#C[C@]3(CN4Cc5ccc(OC)cc5C4=O)NC(=O)NC3=O)cc2)CC1 fall in?
result: intermediate

query: Field: class (Activity) — entry: COc1ccc2c(c1)C(=O)N(C[C@@]1(C#Cc3ccc(/C(=N/O)N4CCN(C)CC4)cc3)NC(=O)NC1=O)C2
result: low

query: Which of the defined bands does the recorded Activity of COc1ccc2c(c1)C(=O)N(C[C@@]1(C#Cc3ccc(C(N)=O)cc3)NC(=O)NC1=O)C2 sit within?
result: low

----------
Experiment: Tmax in monkey at 3 mg/kg, po
Format: ADME, organism-based, Macaca mulatta
Parameters: dose 3 mg/kg, route oral
Settings: rhesus monkey, in vivo
attributeMeasured: Tmax (h)
Reply numerically in h, unit not repeated.

query: Name the reported Tmax value associated with the compound COc1ccc2c(c1)C(=O)N(C[C@@]1(C#Cc3cccnc3)NC(=O)NC1=O)C2
result: 1.2

----------
Experiment: AUC in rat at 10 mg/kg, po
Type: ADME, organism-based
Set-up: dose 10 mg/kg, route oral
Conditions: plasma
attributeMeasured: AUC (µM·h)
Report the figure in µM·h without appending any unit label.

query: # lookup: AUC of COc1ccc2c(c1)C(=O)N(C[C@@]1(C#Cc3cccnc3)NC(=O)NC1=O)C2
result: 4

----------
attributeMeasured: IC50 (nM)
Record the value in nM, omitting the unit from your answer.

query: API: value(readout= IC50, system= Matrix metalloproteinase-9 (Homo sapiens, UniProt P14780), query= COc1ccc2c(c1)C(=O)N(C[C@@]1(C#Cc3cccnc3)NC(=O)NC1=O)C2 )
result: 1010

----------
Experiment: Half life in monkey at 1 mg/kg, iv
Format: ADME, organism-based, Macaca mulatta
Parameters: dose 1 mg/kg, route intravenous
Conditions: rhesus monkey, in vivo
attributeMeasured: half-life (h)
// return numeric value only (unit: h, not printed)

query: Need half-life, item COc1ccc2c(c1)C(=O)N(C[C@@]1(C#Cc3cccnc3)NC(=O)NC1=O)C2
result: 2.4

----------
attributeMeasured: IC50 (nM)
Numeric answer only, unit nM assumed.

query: Write down the reported IC50 of COc1ccc2c(c1)C(=O)N(C[C@@]1(C#Cc3cccnc3)NC(=O)NC1=O)C2 , test system: Collagenase 3 (Homo sapiens, UniProt P45452).
result: 2920

----------
Assay: Tmax in dog at 5 mg/kg, po
Format: ADME, organism-based, Canis lupus familiaris
Parameters: dose 5 mg/kg, route oral
Conditions: in vivo
attributeMeasured: Tmax (min)
Provide only the numeric value, understood in min.

query: Which Tmax reading was recorded for the compound COc1ccc2c(c1)C(=O)N(C[C@@]1(C#Cc3cccnc3)NC(=O)NC1=O)C2 ?
result: 6

----------
Assay: Oral bioavailability in dog at 5 mg/kg
Format: ADME, organism-based, Canis lupus familiaris
Details: in vivo
attributeMeasured: bioavailability (%)
Write it as a number; the unit % goes unstated.

query: # bioavailability lookup, item COc1ccc2c(c1)C(=O)N(C[C@@]1(C#Cc3cccnc3)NC(=O)NC1=O)C2
result: 9

----------
attributeMeasured: IC50
Enter the number, and then the unit.

query: Request: IC50, test system UniProt:P08254, entry COc1ccc2c(c1)C(=O)N(C[C@@]1(C#Cc3cccnc3)NC(=O)NC1=O)C2
Sequence (P08254 whole entry): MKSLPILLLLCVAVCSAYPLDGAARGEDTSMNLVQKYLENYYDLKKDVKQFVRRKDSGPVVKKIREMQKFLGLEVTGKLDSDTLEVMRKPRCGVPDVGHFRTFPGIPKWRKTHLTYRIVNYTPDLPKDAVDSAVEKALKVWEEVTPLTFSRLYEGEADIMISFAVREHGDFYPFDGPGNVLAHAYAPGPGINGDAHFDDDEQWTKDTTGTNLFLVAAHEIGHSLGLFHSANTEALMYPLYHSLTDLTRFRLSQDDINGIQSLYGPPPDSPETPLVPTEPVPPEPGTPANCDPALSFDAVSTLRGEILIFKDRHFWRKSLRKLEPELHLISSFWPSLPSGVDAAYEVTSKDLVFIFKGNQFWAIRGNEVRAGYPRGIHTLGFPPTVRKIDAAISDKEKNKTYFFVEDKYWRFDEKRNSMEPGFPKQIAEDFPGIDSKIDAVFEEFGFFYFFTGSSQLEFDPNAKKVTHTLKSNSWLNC
result: 5.8 µM

----------
Tested on: Blood
Test: Antiinflammatory activity in human whole blood assessed as inhibition of LPS-induced TNFalpha production after 3.5 hrs by ELISA
Format: functional
I'd appreciate it if you could supply log10(Activity) values for the items below.
Could you please treat all values as log10 of Activity in nM?

query: Please state recorded log10(Activity) (tested on Blood) of CCN1CCN(c2ccc(O)c(-c3ccc(C#C[C@]4(CN5Cc6ccc(OC)cc6C5=O)NC(=O)NC4=O)cc3F)n2)CC1
result: 1.60

query: What value of log10(Activity) on Blood does COc1ccc2c(c1)C(=O)N(C[C@@]1(C#Cc3ccc(C(C)=O)cc3)NC(=O)NC1=O)C2 have?
result: 2.55

query: Value wanted: log10(Activity) (Blood) of entry COc1ccc2c(c1)C(=O)N(C[C@@]1(C#Cc3ccc(-c4ncccc4O)cc3)NC(=O)NC1=O)C2
result: 2.07

query: Please state recorded log10(Activity) (tested on Blood) of COc1ccc(C#C[C@]2(CN3Cc4ccc(OC)cc4C3=O)NC(=O)NC2=O)cc1
result: 3.12

query: Item COc1ccc2c(c1)C(=O)N(C[C@@]1(C#Cc3cccc(F)c3)NC(=O)NC1=O)C2 with Blood - log10(Activity)?
result: 2.94

query: // map COc1ccc2c(c1)C(=O)N(C[C@@]1(C#Cc3ccccc3)NC(=O)NC1=O)C2 to recorded log10(Activity) (system: Blood)
result: 2.89

query: I'm curious: which log10(Activity) was measured for COc1ccc2c(c1)C(=O)N(C[C@@]1(C#Cc3cccc(C(C)C)c3)NC(=O)NC1=O)C2 tested on Blood?
result: 4.28

query: Form field: log10(Activity) recorded for COc1ccc2c(c1)C(=O)N(C[C@@]1(C#Cc3ccc4[nH]ccc4c3)NC(=O)NC1=O)C2 with Blood (enter value)
result: 2.88

query: Give recorded log10(Activity) with Blood for the following compound: COc1ccc2c(c1)C(=O)N(C[C@@]1(C#Cc3cccnc3)NC(=O)NC1=O)C2
result: 2.34

----------
Experiment: AUC in monkey at 3 mg/kg, po
Type: ADME, organism-based, Macaca mulatta
Set-up: dose 3 mg/kg, route oral
Conditions: rhesus monkey, plasma
attributeMeasured: AUC (µM·h)
# output: bare number, implied unit µM·h

query: May I ask what AUC has been recorded for COc1ccc2c(c1)C(=O)N(C[C@@]1(C#Cc3cccnc3)NC(=O)NC1=O)C2 ?
result: 2.6
